# assay_method_text: binders of probe aFGF2 on microarray, primary screen, stem cell growth factor project, biochemical, small-molecule microarray, fluorescence 635/667 (AID 1067);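 further: measures binding of biotinylated aFGF2 protein to printed compounds on slides; z-score merges feature fluorescence and signal-to-noise across triplicate slides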
# settings: higher = more signal
Short version: composite z-score at least -0.06 is Fulfilled, less is Not fulfilled.

Consider the following illustrative entries.
COc1ccc(COC(=O)NN=C2C[C@@H](O)[C@@H](O)[C@@H]3[C@@H]4C(=O)N(Cc5ccccc5)C(=O)[C@@H]4CC[C@@H]23)cc1 ... Fulfilled
COc1ccc(O[C@H]2C=C[C@@H](c3ccccc3)O[C@@H]2CO)cc1 ... Not fulfilled
COC(=O)CC=C[C@@H](C)[C@@H](C=NOC[C@@H](O)COCc1ccco1)OC ... Not fulfilled
CCOC(=O)NN=C1C[C@@H](O)[C@@H](O)[C@@H]2[C@@H]3C(=O)N(C[C@@H]4CCCO4)C(=O)[C@@H]3CC[C@H]12 ... Fulfilled
CON=C(C)CCN1CCCc2nc(C)c(C)cc21 ... Fulfilled

Data request: Is composite z-score for `O=C1[C@H]2[C@H]3[C@H](O)[C@H](O)CC(=NO[C@@H]4O[C@H](CO)[C@@H](O)[C@H](O)[C@H]4O)[C@H]3CC[C@H]2C(=O)N1c1ccc(F)cc1F` at or above -0.06?
Data returned: Fulfilled

Data request: Also need CC(C)=NOC(C)CN1CCCc2nc(C)c(C)cc21 (configuration not stated) , thanks.
Data returned: Fulfilled

Data request: Also need `O=C1[C@H]2[C@H]3[C@H](O)[C@H](O)CC(=NO[C@@H]4O[C@H](CO)[C@@H](O)[C@H](O)[C@H]4O)[C@@H]3CC[C@H]2C(=O)N1C1CCCCC1` , thanks.
Data returned: Not fulfilled

Data request: Also need CCOC(=O)[C@H](CC(C)C)NC(=O)CCC1CC(OC(=O)NCCc2ccc(F)cc2)CC2(CCCC(COC(=O)NCc3cccc(C(F)(F)F)c3)O2)O1 (some centres not stated) , thanks.
Data returned: Not fulfilled

Data request: Also need `CCCNC(=O)OC[C@H]1O[C@H](CCON=C2c3cc(OC)ccc3O[C@H](c3cccc(OC)c3)[C@H]2O)C=C[C@@H]1Oc1ccc(OC)cc1` , thanks.
Data returned: Not fulfilled

* * *

# assay_method_text: basal RPMI8226 viability, no added stimulus, profiling panel, cell-based, calcein-AM fluorescence, 48 h, PK04 Diversity Set (AID 1166);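 further: cells grown under basal conditions without added stimulus; test concentration not given here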
# settings: RPMI8226 myeloma viability, higher = more signal
Each record's class is read off its z-score using these ranges: category 1 = under -0.8, category 2 = from -0.8 up to -0.3, category 3 = -0.3 and over

Consider the following illustrative entries.
COc1cccc([C@H]2Oc3ccc(OC)cc3C(=NO[C@@H](C)c3cc(-c4c(C)cc(C)cc4C)no3)[C@@H]2O)c1 ... category 1
CC(=O)OC[C@H]1O[C@H](CC=NOC[C@@H](O)COCc2ccco2)C=C[C@@H]1OC(C)=O ... category 2
CC(C)=CCCC(C)=CCON=C1C[C@@H](O)[C@@H](O)[C@@H]2[C@@H]3C(=O)N(Cc4ccc5c(c4)OCO5)C(=O)[C@@H]3CC[C@@H]12 ... category 2
CO[C@@H]1COC(=O)[C@H](COCc2ccccc2)NC(=O)CC=C[C@@H](C)[C@H](OC)COC(=O)[C@@H](C)NC(=O)CC=C[C@H]1C ... category 1
COC(=O)[C@@H]1CC[C@H](C)[C@@H](c2ccc(C)cc2)N1C(=O)c1ccc(C=NOC[C@H]2O[C@H](c3ccccc3)C=C[C@@H]2Oc2ccc(OC)cc2)cc1 ... category 2

Data request: Just checking, what class would you give `CON=C(C)CCN1CCc2nc(-c3ccccc3)c(-c3ccccc3)cc2C1` here?
Data returned: category 1

Data request: Also need `COc1ccc(OC[C@@H](CO)OC)cc1` , thanks.
Data returned: category 2

Data request: Also need `CC(CCC(=O)OC[C@H]1O[C@H](C#Cc2ccccc2)C=C[C@@H]1Oc1ccc(C)cc1)=NO[C@H](C)c1cn([C@@H]2COC[C@H]2O)nn1` , thanks.
Data returned: category 1

Data request: Also need `C[C@H]1CC[C@H]2C(=O)N[C@H](Cc3ccccc3)C(=O)N2[C@@H]1c1ccccc1` , thanks.
Data returned: category 3

Data request: Also need `CCOC(=O)NN=C1C[C@@H](O)[C@@H](O)[C@@H]2[C@@H]3C(=O)N(C[C@@H]4CCCO4)C(=O)[C@@H]3CC[C@H]12` , thanks.
Data returned: category 3

* * *

Here the recorded z-score is given for each entry.
# assay_method_text: modulators of S6 phosphorylation in cells, primary screen, cell-based, A549, cytoblot, luminescence, serum-stimulated (AID 1158);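 further: serum-stimulated A549 lung adenocarcinoma cells; signal is phosphorylated S6 detected by cytoblot immunostaining with HRP secondary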
# settings: A549 phospho-S6 cytoblot, 5 h, higher = more signal
Note: the reply should be a number with no unit written.

Data request: For the molecule shown here, `O=C(NN=C1C[C@@H](O)[C@@H](O)[C@@H]2[C@@H]3C(=O)N(Cc4ccc5c(c4)OCO5)C(=O)[C@@H]3CC[C@@H]12)OCc1ccccc1` , give the reported z-score.
Data returned: -0.0564

* * *

# assay_method_text: COS7 lysate on small-molecule microarray, probe aHis, 635 nm (AID 1123);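 further: z-score combines 667nm fluorescence intensity with signal-to-noise per printed compound spot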
# settings: COS7 cell lysate, fluorescence, higher = more signal
assay_endpoint: composite z-score
Note: the reply should be a number with no unit written.

Data request: For the compound shown here, `CC(C)CON=C1C[C@@H](O)[C@@H](O)[C@@H]2[C@@H]3C(=O)N(C(C)(C)C)C(=O)[C@@H]3CC[C@@H]12` , give the reported composite z-score.
Data returned: -0.75

Data request: Also need `CC(CCN1CCCCc2nc(C)c(C)cc21)=NO[C@H](C)c1cn([C@@H]2COC[C@H]2O)nn1` , thanks.
Data returned: 0.298

* * *

# assay_method_text: P. aeruginosa biofilm formation inhibitors, primary screen, strain PAO1, LB-PBS medium, absorbance 600 nm (AID 1176); further: test concentration not given here
# settings: P. aeruginosa PAO1 growth/biofilm, A600, 12 h; higher = more signal
Here the recorded z-score is given for each entry.
Note: the reply should be a number with no unit written.

Example entries and their recorded answers appear below.
OC[C@H]1O[C@H](C#Cc2ccccc2)C=C[C@@H]1O ... 0.298
CCOC(=O)[C@H](Cc1ccccc1)NC(=O)CCC1CC(OC(=O)NCc2cccc3ccccc23)CC2(CCCC(COC(=O)NCC3CCCCC3)O2)O1 (some centres undefined) ... 0.143
CC=CC1=C(CO)[C@H](O)[C@H]2O[C@H]2[C@@H]1O ... -0.102

Data request: For the molecule shown here, `CO[C@@H]1C=CCC(=O)N[C@@H](C)C(=O)OC[C@@H](NS(=O)(=O)c2ccc(C)cc2)[C@H](C)C=CCC(=O)OC[C@H]1C` , give the reported z-score.
Data returned: -0.212

Data request: Also need CCOC(=O)[C@H](CC(C)C)NC(=O)CCC1CC(OC(=O)NCc2ccc3c(c2)OCO3)CC2(CCCC(COC(=O)NCCc3ccc(Cl)cc3)O2)O1 (some centres undefined) , thanks.
Data returned: -0.151

Data request: Also need C=CC[C@@H]1C=CC(ON=C(C)C)[C@@H](CO)O1 (some centres undefined) , thanks.
Data returned: -0.254

Data request: Also need `O=C1C2=CC[C@H]3C(=O)N(c4ccc(F)cc4F)C(=O)[C@H]3[C@H]2[C@H](O)[C@@H]2O[C@H]12` , thanks.
Data returned: -0.307

Data request: Also need `COc1cccc([C@H]2Oc3ccc(OC)cc3C(=NO[C@@H](C)c3cc(-c4c(C)cc(C)cc4C)no3)[C@@H]2O)c1` , thanks.
Data returned: 0.523

Data request: Also need `CC(C)CON=C1C[C@@H](O)[C@@H](O)[C@@H]2[C@@H]3C(=O)N(Cc4ccccc4)C(=O)[C@@H]3CC[C@H]12` , thanks.
Data returned: 0.92

Data request: Also need COCCNC(=O)OCC1CCCC2(CC(OC(=O)NCc3cccc4ccccc34)CC(CCC(=O)N[C@@H](C)C(=O)OC)O2)O1 (some centres undefined) , thanks.
Data returned: -0.303

Data request: Also need `CO[C@H]1C[C@@H]2C[C@H](O)CC(CC(=O)O[C@@H](C=CCC(C)C)C[C@@H]3CC[C@H](C)[C@@H](C1)O3)O2` , thanks.
Data returned: -0.139

* * *

Here the recorded z-score is given for each entry.
# assay_method_text: basal RPMI8226 viability, no added stimulus, profiling panel, cell-based, calcein-AM fluorescence, 48 h, PK04 Diversity Set (AID 1166);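 further: cells grown under basal conditions without added stimulus; test concentration not given here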
# settings: RPMI8226 myeloma viability, higher = more signal
Note: the reply should be a number with no unit written.

O=C1C2=CC[C@H]3C(=O)N(Cc4ccccc4)C(=O)[C@H]3[C@H]2[C@H](O)[C@@H]2O[C@H]12 ... -3.83

Data request: For the compound shown here, `COC(=O)[C@H](C)NC(=O)CC=C[C@@H](C)[C@@H]1C=C[C@H](O)[C@@H](CO)O1` , give the reported z-score.
Data returned: -0.859

Data request: Also need `Cc1ccc(S(=O)(=O)N[C@@H]2COC(=O)CC=C[C@@H](C)[C@H](NS(=O)(=O)c3ccc(C)cc3)COC(=O)[C@H](C)NC(=O)CC=C[C@H]2C)cc1` , thanks.
Data returned: 0.158
